Entry source: patent US20120245137A1

target: N-type calcium channel subunits (α1B, α2δ, and β3a) (Homo sapiens); experiment: Block of Cav2.2 channel, whole cell voltage clamp, manual and PatchXpress; type: cell-based; details: Table 5; table follows Assay Example 3 (whole cell voltage clamp / PatchXpress); assay not given
Sequence (Q00975 whole entry): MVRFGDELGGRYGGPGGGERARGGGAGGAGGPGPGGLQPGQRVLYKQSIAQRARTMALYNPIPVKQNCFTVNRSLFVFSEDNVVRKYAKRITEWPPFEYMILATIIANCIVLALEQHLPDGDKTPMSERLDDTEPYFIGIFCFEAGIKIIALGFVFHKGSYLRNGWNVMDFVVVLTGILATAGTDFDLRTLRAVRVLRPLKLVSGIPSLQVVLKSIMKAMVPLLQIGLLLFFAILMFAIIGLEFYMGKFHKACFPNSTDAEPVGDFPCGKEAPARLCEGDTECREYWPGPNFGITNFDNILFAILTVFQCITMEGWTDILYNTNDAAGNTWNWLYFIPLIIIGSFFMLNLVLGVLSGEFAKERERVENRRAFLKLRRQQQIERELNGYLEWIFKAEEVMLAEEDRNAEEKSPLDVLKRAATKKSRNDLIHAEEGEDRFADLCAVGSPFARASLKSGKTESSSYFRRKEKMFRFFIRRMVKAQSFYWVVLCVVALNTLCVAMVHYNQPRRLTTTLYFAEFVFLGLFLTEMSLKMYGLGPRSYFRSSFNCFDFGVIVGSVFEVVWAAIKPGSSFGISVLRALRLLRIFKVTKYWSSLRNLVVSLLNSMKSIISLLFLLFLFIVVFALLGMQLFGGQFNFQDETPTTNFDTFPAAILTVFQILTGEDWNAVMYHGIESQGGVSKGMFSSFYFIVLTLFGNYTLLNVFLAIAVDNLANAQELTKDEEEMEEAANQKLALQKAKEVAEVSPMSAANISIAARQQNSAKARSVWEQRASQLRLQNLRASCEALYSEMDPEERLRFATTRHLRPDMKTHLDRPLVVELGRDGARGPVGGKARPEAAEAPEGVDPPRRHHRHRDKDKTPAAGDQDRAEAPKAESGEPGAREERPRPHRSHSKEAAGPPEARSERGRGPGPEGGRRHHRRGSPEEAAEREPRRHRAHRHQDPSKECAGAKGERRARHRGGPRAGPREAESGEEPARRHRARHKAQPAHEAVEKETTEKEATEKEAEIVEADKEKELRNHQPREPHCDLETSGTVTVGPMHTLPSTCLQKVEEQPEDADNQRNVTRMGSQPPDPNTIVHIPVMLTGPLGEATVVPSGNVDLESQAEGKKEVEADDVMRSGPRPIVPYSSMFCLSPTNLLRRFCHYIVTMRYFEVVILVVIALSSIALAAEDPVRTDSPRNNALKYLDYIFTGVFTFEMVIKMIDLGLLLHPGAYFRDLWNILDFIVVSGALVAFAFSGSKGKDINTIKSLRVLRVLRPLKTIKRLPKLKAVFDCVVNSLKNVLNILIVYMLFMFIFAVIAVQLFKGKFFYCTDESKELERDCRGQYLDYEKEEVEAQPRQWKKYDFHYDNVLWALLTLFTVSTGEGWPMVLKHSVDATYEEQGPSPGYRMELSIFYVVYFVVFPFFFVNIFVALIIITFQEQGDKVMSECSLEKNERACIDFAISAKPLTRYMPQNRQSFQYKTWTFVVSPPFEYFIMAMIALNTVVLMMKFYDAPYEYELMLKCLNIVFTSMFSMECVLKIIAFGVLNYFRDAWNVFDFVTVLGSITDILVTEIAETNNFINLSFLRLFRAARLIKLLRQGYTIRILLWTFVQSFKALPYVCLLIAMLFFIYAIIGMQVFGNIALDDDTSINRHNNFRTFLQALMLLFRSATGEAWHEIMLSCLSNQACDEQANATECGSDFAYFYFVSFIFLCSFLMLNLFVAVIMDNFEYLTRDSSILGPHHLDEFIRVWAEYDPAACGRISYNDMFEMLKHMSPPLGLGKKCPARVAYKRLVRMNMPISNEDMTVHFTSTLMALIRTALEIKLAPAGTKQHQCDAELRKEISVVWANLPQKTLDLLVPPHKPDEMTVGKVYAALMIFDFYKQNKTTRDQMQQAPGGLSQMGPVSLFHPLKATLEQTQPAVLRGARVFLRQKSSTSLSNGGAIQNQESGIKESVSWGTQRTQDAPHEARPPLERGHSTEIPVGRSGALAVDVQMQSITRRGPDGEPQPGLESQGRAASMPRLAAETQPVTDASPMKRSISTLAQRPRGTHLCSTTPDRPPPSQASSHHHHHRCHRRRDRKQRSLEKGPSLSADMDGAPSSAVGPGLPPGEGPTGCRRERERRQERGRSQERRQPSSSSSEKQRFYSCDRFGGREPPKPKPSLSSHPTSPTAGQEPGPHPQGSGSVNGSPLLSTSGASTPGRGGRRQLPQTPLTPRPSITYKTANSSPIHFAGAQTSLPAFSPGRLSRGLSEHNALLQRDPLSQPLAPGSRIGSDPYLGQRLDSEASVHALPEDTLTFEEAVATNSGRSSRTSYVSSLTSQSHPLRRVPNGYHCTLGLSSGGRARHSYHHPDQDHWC
Sequence (P54289 25-1103 partner): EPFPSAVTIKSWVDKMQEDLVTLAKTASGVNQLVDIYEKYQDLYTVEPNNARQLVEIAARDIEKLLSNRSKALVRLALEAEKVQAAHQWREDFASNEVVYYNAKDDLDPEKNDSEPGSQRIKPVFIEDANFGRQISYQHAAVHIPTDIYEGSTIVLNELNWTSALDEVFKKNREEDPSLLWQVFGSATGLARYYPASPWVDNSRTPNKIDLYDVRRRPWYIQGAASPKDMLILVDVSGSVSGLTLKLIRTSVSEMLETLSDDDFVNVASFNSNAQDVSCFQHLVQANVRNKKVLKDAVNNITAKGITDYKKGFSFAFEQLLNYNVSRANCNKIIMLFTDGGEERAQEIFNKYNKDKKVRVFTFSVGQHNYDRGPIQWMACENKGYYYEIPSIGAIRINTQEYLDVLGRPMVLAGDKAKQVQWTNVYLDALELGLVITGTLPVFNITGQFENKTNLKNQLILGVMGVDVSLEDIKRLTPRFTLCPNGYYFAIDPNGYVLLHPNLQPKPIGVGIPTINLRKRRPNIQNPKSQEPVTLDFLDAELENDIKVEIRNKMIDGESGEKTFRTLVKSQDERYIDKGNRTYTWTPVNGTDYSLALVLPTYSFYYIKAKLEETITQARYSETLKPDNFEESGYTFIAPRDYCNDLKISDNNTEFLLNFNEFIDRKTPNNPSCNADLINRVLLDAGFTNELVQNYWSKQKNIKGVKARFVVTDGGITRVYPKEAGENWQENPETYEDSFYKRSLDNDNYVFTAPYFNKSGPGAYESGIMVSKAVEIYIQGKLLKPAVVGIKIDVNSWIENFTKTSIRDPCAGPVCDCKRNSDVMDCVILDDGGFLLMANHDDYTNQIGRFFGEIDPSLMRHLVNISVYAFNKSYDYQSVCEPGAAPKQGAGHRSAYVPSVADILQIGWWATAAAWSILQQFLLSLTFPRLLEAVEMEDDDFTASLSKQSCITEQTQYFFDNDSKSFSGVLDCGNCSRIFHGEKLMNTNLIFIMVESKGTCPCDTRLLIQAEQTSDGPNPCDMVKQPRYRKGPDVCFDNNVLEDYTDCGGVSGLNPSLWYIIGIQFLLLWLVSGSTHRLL
Sequence (P54284 whole entry partner): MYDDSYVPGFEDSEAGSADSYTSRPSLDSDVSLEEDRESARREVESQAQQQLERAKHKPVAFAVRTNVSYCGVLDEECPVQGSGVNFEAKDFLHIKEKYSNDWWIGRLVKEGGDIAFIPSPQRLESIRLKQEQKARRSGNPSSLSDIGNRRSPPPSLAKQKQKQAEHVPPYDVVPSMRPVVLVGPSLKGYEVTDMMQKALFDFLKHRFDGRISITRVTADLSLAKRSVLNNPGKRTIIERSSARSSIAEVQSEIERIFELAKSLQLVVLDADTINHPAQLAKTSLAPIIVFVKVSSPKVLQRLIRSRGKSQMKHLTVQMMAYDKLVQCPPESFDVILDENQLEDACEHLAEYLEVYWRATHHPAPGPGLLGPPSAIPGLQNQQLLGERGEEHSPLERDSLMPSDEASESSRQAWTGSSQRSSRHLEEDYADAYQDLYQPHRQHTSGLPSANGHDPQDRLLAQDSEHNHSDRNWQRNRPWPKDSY
Below is a list of entries, each paired with its recorded IC50 value.
RECORDED ENDPOINT: IC50 (nM)

[[record]]
compound = "O=S(=O)(NC[C@H]1C[C@H](S(=O)(=O)c2cccc(C(F)(F)F)c2)C1)c1ccccc1C(F)(F)F"
recorded_endpoint = "IC50"
number = 1140

[[record]]
compound = "O=C(N[C@H]1CC[C@@](F)(S(=O)(=O)c2cccc(C(F)(F)F)c2)CC1)[C@@H]1CC[C@H](c2ccccc2)N1"
recorded_endpoint = "IC50"
number = 540

[[record]]
compound = "O=C(N[C@H]1CC[C@](F)(S(=O)(=O)c2cccc(C(F)(F)F)c2)CC1)c1cc(C(F)(F)F)ccn1"
recorded_endpoint = "IC50"
number = 630

[[record]]
compound = "O=C(N[C@H]1CC[C@](F)(S(=O)(=O)c2cccc(C(F)(F)F)c2)CC1)c1cc(F)cc(Cl)c1"
recorded_endpoint = "IC50"
number = 410

[[record]]
compound = "O=C(Nc1ccc(Oc2ccc(F)cc2)nc1)[C@H]1C[C@H](S(=O)(=O)c2cccc(C(F)(F)F)c2)C1"
recorded_endpoint = "IC50"
number = 1300

[[record]]
compound = "O=C(NC[C@H]1CC[C@@H](S(=O)(=O)c2cccc(C(F)(F)F)c2)CC1)c1cc(F)cc(Cl)c1"
recorded_endpoint = "IC50"
number = 610

[[record]]
compound = "O=C(NC1CCC(F)(S(=O)(=O)c2cccc(C(F)(F)F)c2)CC1)c1nocc1C1CC1 (stereo not shown)"
recorded_endpoint = "IC50"
number = 430

[[record]]
compound = "CS(=O)(=O)c1nc(C(F)(F)F)ccc1C(=O)NCC1CC(S(=O)(=O)c2cccc(C(F)(F)F)c2)C1 (stereo not shown)"
recorded_endpoint = "IC50"
number = 1610

[[record]]
compound = "O=C(NC[C@H]1C[C@@H](S(=O)(=O)c2cccc(C(F)(F)F)c2)C1)c1ccnc(C(F)(F)F)n1"
recorded_endpoint = "IC50"
number = 1360

[[record]]
compound = "CC(C)(C1CC(NC(=O)c2cn3cc(C(F)(F)F)ccc3n2)C1)S(=O)(=O)c1cccc(C(F)(F)F)c1 (stereo not shown)"
recorded_endpoint = "IC50"
number = 400

[[record]]
compound = "COc1cc(F)cc(C(=O)N[C@H]2CC[C@H](CS(=O)(=O)c3cccc(C(F)(F)F)c3)CC2)c1"
recorded_endpoint = "IC50"
number = 2320

[[record]]
compound = "CC1(S(=O)(=O)c2cccc(C(F)(F)F)c2)CCC(NC(=O)CNC2CCCCC2)CC1 (stereo not shown)"
recorded_endpoint = "IC50"
number = 260

[[record]]
compound = "COc1cc(F)cc(C(=O)N[C@H]2C[C@H](CS(=O)(=O)c3cccc(C(F)(F)F)c3)C2)c1"
recorded_endpoint = "IC50"
number = 890

[[record]]
compound = "O=S(=O)(N[C@H]1CC[C@@](F)(S(=O)(=O)c2cccc(C(F)(F)F)c2)CC1)c1cccc(C(F)(F)F)c1"
recorded_endpoint = "IC50"
number = 700

[[record]]
compound = "CN(C(=O)CN[C@H]1CC[C@@H](S(=O)(=O)c2cccc(C(F)(F)F)c2)CC1)C(C)(C)C"
recorded_endpoint = "IC50"
number = 90

[[record]]
compound = "O=C(CCC(F)(F)F)N[C@H]1CC[C@@](F)(S(=O)(=O)c2cccc(C(F)(F)F)c2)CC1"
recorded_endpoint = "IC50"
number = 530

[[record]]
compound = "O=C(N[C@H]1CC[C@H](S(=O)(=O)c2cccc(C(F)(F)F)c2)CC1)C1(C(F)(F)F)CCC1"
recorded_endpoint = "IC50"
number = 8990

[[record]]
compound = "COc1cc(F)cc(C(=O)N[C@H]2CC[C@@H](CS(=O)(=O)c3cccc(C(F)(F)F)c3)CC2)c1"
recorded_endpoint = "IC50"
number = 440

[[record]]
compound = "O=C(N[C@H]1CC[C@@H](S(=O)(=O)c2cccc(C(F)(F)F)c2)CC1)c1cc(-c2ccc(F)cc2)n[nH]1"
recorded_endpoint = "IC50"
number = 1060

[[record]]
compound = "N[C@@H]1CCCC[C@H]1C(=O)N[C@H]1CC[C@@](F)(S(=O)(=O)c2cccc(C(F)(F)F)c2)CC1"
recorded_endpoint = "IC50"
number = 1050

[[record]]
compound = "O=C(N[C@H]1CC[C@@](F)(S(=O)(=O)c2cccc(C(F)(F)F)c2)CC1)c1nc2cc(C(F)(F)F)ccc2[nH]1"
recorded_endpoint = "IC50"
number = 850

[[record]]
compound = "O=C(CNC1CCCCC1)N[C@H]1CC[C@H](CS(=O)(=O)c2cccc(C(F)(F)F)c2)CC1"
recorded_endpoint = "IC50"
number = 540

[[record]]
compound = "COc1cc(C(=O)N[C@H]2CC[C@@](F)(S(=O)(=O)c3cccc(C(F)(F)F)c3)CC2)cc(Cl)n1"
recorded_endpoint = "IC50"
number = 110

[[record]]
compound = "O=C(N[C@H]1CC[C@@](F)(S(=O)(=O)c2cccc(C(F)(F)F)c2)CC1)c1cc2cnccc2nc1C(F)(F)F"
recorded_endpoint = "IC50"
number = 2440

[[record]]
compound = "O=C(NC[C@H]1C[C@H](S(=O)(=O)c2cc(F)cc(C(F)(F)F)c2)C1)c1cn2cc(C(F)(F)F)ccc2n1"
recorded_endpoint = "IC50"
number = 1070

[[record]]
compound = "CC(C)([C@H]1C[C@H](NC(=O)c2ccc(F)c(C(F)(F)F)c2)C1)S(=O)(=O)c1cccc(C(F)(F)F)c1"
recorded_endpoint = "IC50"
number = 80

[[record]]
compound = "O=C(N[C@H]1CC[C@](F)(S(=O)(=O)c2cccc(C(F)(F)F)c2)CC1)c1nc2cc(C(F)(F)F)ccc2[nH]1"
recorded_endpoint = "IC50"
number = 4310

[[record]]
compound = "O=C(N[C@H]1CC[C@H](CS(=O)(=O)c2cccc(C(F)(F)F)c2)CC1)c1ccc(OCC(F)(F)F)nc1"
recorded_endpoint = "IC50"
number = 480

